Target: HGFR (Homo sapiens)
Construct: purchased Upstate 14-526
Assay: HGFR continuous-coupled spectrophotometric assay
Type: biochemical
Details: Table 6; percent c-MET inhibition at 1 μM; read-out: % inhibition
The following molecules are listed with their measured inhibition at 1 µM values.
A number alone suffices; assume %.

Below are worked cases with known answers.
[
  {
    "molecule": "Nc1ncc(C(=O)NCC(F)(F)F)cc1OCc1c(Cl)cccc1Cl",
    "inhibition at 1 µM, %": 30
  },
  {
    "molecule": "Nc1ncc(C(=O)NCC2COc3ccccc3O2)cc1OCc1c(Cl)cccc1Cl (stereo not drawn)",
    "inhibition at 1 µM, %": 34
  },
  {
    "molecule": "CCN(CC)CC1(O)CCN(C(=O)c2cnc(N)c(OCc3c(Cl)cccc3Cl)c2)CC1",
    "inhibition at 1 µM, %": 71
  },
  {
    "molecule": "Nc1ncc(C(=O)N2CCC(N3CCCCC3=O)CC2)cc1OCc1c(Cl)cccc1Cl",
    "inhibition at 1 µM, %": 26
  },
  {
    "molecule": "CC(C)CNC(=O)c1ccc(Cl)c(CNC(=O)c2cnc(N)c(OCc3c(Cl)cccc3Cl)c2)c1",
    "inhibition at 1 µM, %": 47
  }
]

// below: inhibition at 1 µM requested for another molecule
Query :: What measured inhibition at 1 µM goes with Nc1ncc(C(=O)NC[C@H]2CCCC[C@H]2O)cc1OCc1c(Cl)cccc1Cl ?
Result :: 24

* * *

Molecular target: HGFR (Homo sapiens)
Construct: purchased Upstate 14-526
Test: HGFR continuous-coupled spectrophotometric assay
Type: biochemical

[
  {
    "compound": "Nc1ncc(-c2ccc(C(=O)N3CCC(N4CCCC4)CC3)cc2)cc1OCc1ccc(C(=O)NC2CCN(Cc3ccccc3)C2)cc1 (centres unmarked)",
    "% inhibition": "% inhibition = 24"
  },
  {
    "compound": "Nc1ncc(-c2ccc(C(=O)N3CCC(N4CCCC4)CC3)cc2)cc1OCc1cc(F)ccc1Br",
    "% inhibition": "% inhibition = 24"
  }
]

* * *

Target: GST fusion protein containing the Met kinase domain (Homo sapiens, UniProt P08581)
Construct: Purified GST fusion protein containing the Met kinase domain, SUGEN, Inc
Sequence (P08581 1078-1345 limits assumed): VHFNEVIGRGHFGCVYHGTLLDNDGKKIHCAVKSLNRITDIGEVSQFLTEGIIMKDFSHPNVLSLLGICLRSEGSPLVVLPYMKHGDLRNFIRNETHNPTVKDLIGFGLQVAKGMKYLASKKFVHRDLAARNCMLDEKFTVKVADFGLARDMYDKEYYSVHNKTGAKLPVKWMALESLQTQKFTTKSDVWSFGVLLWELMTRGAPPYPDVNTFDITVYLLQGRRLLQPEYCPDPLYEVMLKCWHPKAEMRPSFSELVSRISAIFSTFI
Assay: MET transphosphorylation assay (ELISA, poly(glu-tyr) substrate)
measuredEndpoint: IC50
Please state the value followed by its unit.

Query :: I am curious: what IC50 value has been reported for Nc1ncc(-c2ccccc2)cc1OCc1c(Cl)cccc1Cl ?
Result :: 3.9 µM

* * *

Target: HGFR (Homo sapiens, UniProt P08581)
Construct: purchased Upstate 14-526
Sequence (P08581 974-1390 limits assumed): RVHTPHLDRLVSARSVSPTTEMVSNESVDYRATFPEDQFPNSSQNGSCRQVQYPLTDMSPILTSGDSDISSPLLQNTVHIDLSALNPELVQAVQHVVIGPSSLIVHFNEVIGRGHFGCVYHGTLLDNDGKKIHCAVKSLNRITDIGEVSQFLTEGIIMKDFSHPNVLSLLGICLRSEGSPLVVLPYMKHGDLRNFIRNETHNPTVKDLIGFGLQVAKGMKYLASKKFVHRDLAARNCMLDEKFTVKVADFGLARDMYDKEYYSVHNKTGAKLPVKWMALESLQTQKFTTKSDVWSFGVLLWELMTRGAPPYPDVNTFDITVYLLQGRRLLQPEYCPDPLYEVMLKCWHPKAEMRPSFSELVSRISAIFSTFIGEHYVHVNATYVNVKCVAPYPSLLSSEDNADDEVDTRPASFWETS
Test: HGFR continuous-coupled spectrophotometric assay
Assay type: biochemical
Settings: Table 3; Ki(μM) or I(%); test concentration not given
The following compounds are shown together with reported I(%) values.
Answer format: numeric, % implied, no suffix.

[
  {
    "compound": "CC(Oc1cc(-c2ccc(C(=O)N3C[C@@H](C)N[C@@H](C)C3)cc2)cnc1N)c1ccccc1C(F)(F)F (some centres unmarked) [Example I-616]",
    "quantitativeResult": 3
  },
  {
    "compound": "Nc1ncc(-c2ccc(C(=O)N3CCC(N4CCCC4)CC3)cc2)cc1OCc1ccccc1 [Example I-649]",
    "quantitativeResult": 29
  },
  {
    "compound": "Cc1cc(C)c(C)c(COc2cc(-c3ccc(C(=O)N4CCC(N5CCCC5)CC4)cc3)cnc2N)c1C [Example I-654]",
    "quantitativeResult": 9
  },
  {
    "compound": "CC1CN(C(=O)c2ccc(-c3cnc(N)c(OCc4ccccc4)c3)cc2)CC(C)N1 (centres unmarked) [Example I-621]",
    "quantitativeResult": 6
  },
  {
    "compound": "Cc1ccccc1COc1cc(-c2ccc(C(=O)N3CC(C)NC(C)C3)cc2)cnc1N (centres unmarked) [Example I-624]",
    "quantitativeResult": 0
  },
  {
    "compound": "CC(Oc1cc(CNC2CCN(Cc3ccccc3)C2)cnc1N)c1c(Cl)ccc(F)c1Cl (centres unmarked) [Example I-608]",
    "quantitativeResult": 0
  },
  {
    "compound": "COC(=O)c1ccc(-c2cnc(N)c(OC(C)c3c(Cl)ccc(F)c3Cl)c2)c(C)c1 (centres unmarked) [Example I-548]",
    "quantitativeResult": 17
  }
]

API: the following record is the query input.
Query :: Consider the compound shown here: CC(Oc1cc(-c2ccccc2OC(F)(F)F)cnc1N)c1c(Cl)ccc(F)c1Cl (centres unmarked) [Example I-561] What is its recorded I(%)?
Result :: 14

* * *

Molecular target: HGFR (Homo sapiens, UniProt P08581)
Construct: purchased Upstate 14-526
Assay: HGFR continuous-coupled spectrophotometric assay
Type: biochemical
Conditions: Table 6; percent c-MET inhibition at 1 μM; read-out: % inhibition
# cutoff 30% applies to inhibition at 1 µM; >= gives satisfied, < gives not satisfied

[
  {
    "molecule": "Nc1ncc(C(=O)NCC(O)c2ccc(O)cc2)cc1OCc1c(Cl)cccc1Cl (stereo not shown)",
    "answerLabel": "not satisfied"
  }
]

Now take the following molecule into account.
Query :: // inclusive: inhibition at 1 µM at least 30%? input: Nc1ncc(C(=O)N2CCN(CCCO)CC2)cc1OCc1c(Cl)cccc1Cl
Result :: satisfied

* * *

Target: HGFR (Homo sapiens)
Construct: purchased Upstate 14-526
Experiment: HGFR continuous-coupled spectrophotometric assay
Format: biochemical
measuredEndpoint: % inhibition

[
  {
    "givenSmiles": "Nc1ncc(-c2ccc(C(=O)N3CCC(N4CCCC4)CC3)cc2)cc1OCc1ccc(C(F)(F)F)cc1",
    "% inhibition": "% inhibition = 10"
  },
  {
    "givenSmiles": "COc1ccc(-c2nc(COc3cc(-c4ccc(C(=O)N5CCC(N6CCCC6)CC5)cc4)cnc3N)no2)cc1",
    "% inhibition": "% inhibition = 10"
  },
  {
    "givenSmiles": "CCOC(=O)CCNS(=O)(=O)c1ccc(COc2cc(-c3ccc(C(=O)N4CCC(N5CCCC5)CC4)cc3)cnc2N)cc1",
    "% inhibition": "% inhibition = 15"
  },
  {
    "givenSmiles": "Nc1ncc(-c2ccc(C(=O)N3CCC(N4CCCC4)CC3)cc2)cc1OCc1ccc(C(=O)NCc2cccnc2)cc1",
    "% inhibition": "% inhibition = 15"
  }
]

Could you now look at the following compound, please?
Query :: Provide the documented % inhibition with HGFR (Homo sapiens) as the system for COc1cc(COc2cc(-c3ccc(C(=O)N4CCC(N5CCCC5)CC4)cc3)cnc2N)cc(OC)c1OC
Result :: % inhibition = 10

* * *

Target: HGFR (Homo sapiens)
Construct: purchased Upstate 14-526
Test: HGFR continuous-coupled spectrophotometric assay
Format: biochemical
Details: Table 5; percent c-MET inhibition at 50 nM
Output label 1 for inhibition at 0.05 µM not less than 60%; output label 0 otherwise.

Some solved entries appear below for comparison.
[
  {
    "molecule": "CC(Oc1cc(-c2ccc(C(=O)NC(CO)C(C)C)cc2)cnc1N)c1c(Cl)ccc(F)c1Cl (centres unmarked)",
    "experimentalTarget": "HGFR (Homo sapiens)",
    "answerLabel": "label 1"
  },
  {
    "molecule": "CC(Oc1cc(-c2ccc(C(=O)N3CCCCC3COc3ccccc3)cc2)cnc1N)c1c(Cl)ccc(F)c1Cl (centres unmarked)",
    "experimentalTarget": "HGFR (Homo sapiens)",
    "answerLabel": "label 0"
  },
  {
    "molecule": "CCC1CCCCN1C(=O)c1ccc(-c2cnc(N)c(OC(C)c3c(Cl)ccc(F)c3Cl)c2)cc1 (centres unmarked)",
    "experimentalTarget": "HGFR (Homo sapiens)",
    "answerLabel": "label 0"
  }
]

Query :: Is reported inhibition at 0.05 µM greater than or equal to 60% here: CC(Oc1cc(-c2ccc(C(=O)N3CCCC(CO)C3)cc2)cnc1N)c1c(Cl)ccc(F)c1Cl (centres unmarked)
Result :: label 1

Query :: Determine whether measured inhibition at 0.05 µM meets or exceeds 60% for COc1ccc(C(NC(=O)c2ccc(-c3cnc(N)c(OC(C)c4c(Cl)ccc(F)c4Cl)c3)cc2)C2CC2)cc1 (centres unmarked)
Result :: label 1

Query :: Reported inhibition at 0.05 µM at or above 60%? CC(Oc1cc(-c2ccc(C(=O)N[C@H](CO)C(C)C)cc2)cnc1N)c1c(Cl)ccc(F)c1Cl (some centres unmarked)
Result :: label 1

* * *

Molecular target: HGFR (Homo sapiens, UniProt P08581)
Construct: purchased Upstate 14-526
Assay: HGFR continuous-coupled spectrophotometric assay
Type: biochemical
measuredEndpoint: % inhibition

Some molecules with known % inhibition results, for comparison:
[
  {
    "molecule": "Nc1ncc(-c2ccc(C(=O)N3CCC(N4CCCC4)CC3)cc2)cc1OCc1cccc(OC(F)(F)F)c1",
    "% inhibition": "% inhibition = 13"
  },
  {
    "molecule": "Nc1ncc(-c2ccc(C(=O)N3CCC(N4CCCC4)CC3)cc2)cc1OCc1cncc2ccccc12",
    "% inhibition": "% inhibition = 9"
  },
  {
    "molecule": "CC(Oc1cc(-c2ccc(C(=O)N3CCC(N4CCCC4)CC3)cc2)cnc1N)c1ccccc1 (stereo not drawn)",
    "% inhibition": "% inhibition = 10"
  },
  {
    "molecule": "Cc1oc(-c2ccc(F)cc2)nc1COc1cc(-c2ccc(C(=O)N3CCC(N4CCCC4)CC3)cc2)cnc1N",
    "% inhibition": "% inhibition = 17"
  }
]

Query :: So what does the record say about % inhibition for Nc1ncc(-c2ccc(C(=O)N3CCC(N4CCCC4)CC3)cc2)cc1OCc1cc(-c2ccccc2)no1 ?
Result :: % inhibition = 23

Query :: Tell me the measured % inhibition of CN(C)c1ccc(NC(=O)c2cccc(COc3cc(-c4ccc(C(=O)N5CCC(N6CCCC6)CC5)cc4)cnc3N)c2)cc1 , please.
Result :: % inhibition = 23

Query :: Please look up its % inhibition: Nc1ncc(-c2ccc(C(=O)N3CCC(N4CCCC4)CC3)cc2)cc1OCc1ccc(S(=O)(=O)c2ccc(F)cc2)cc1
Result :: % inhibition = 13

Query :: Fill in: % inhibition of Nc1ncc(-c2ccc(C(=O)N3CCC(N4CCCC4)CC3)cc2)cc1OCc1ccccc1CS(=O)(=O)c1ccccc1 is ___
Result :: % inhibition = 11

Query :: Look at this molecule and give its reported % inhibition. Nc1ncc(-c2ccc(C(=O)N3CCC(N4CCCC4)CC3)cc2)cc1OCc1noc(-c2ccccc2)n1
Result :: % inhibition = 16

Query :: Suppose we examine the molecule Nc1ncc(-c2ccc(C(=O)N3CCC(N4CCCC4)CC3)cc2)cc1OCc1cccc(-c2ccnc(Br)n2)c1 ; what % inhibition value has been reported?
Result :: % inhibition = 13

Query :: So what's the measured % inhibition for this one? CCN1CCCC1CNC(=O)c1cccc(COc2cc(-c3ccc(C(=O)N4CCC(N5CCCC5)CC4)cc3)cnc2N)c1 (stereo not drawn)
Result :: % inhibition = 10

Query :: Item Cn1c(COc2cc(-c3ccc(C(=O)N4CCC(N5CCCC5)CC4)cc3)cnc2N)nc2ccccc21 has what recorded % inhibition?
Result :: % inhibition = 10

Query :: Entry under review: COc1ccnc(COc2cc(-c3ccc(C(=O)N4CCC(N5CCCC5)CC4)cc3)cnc2N)c1OC . Reported % inhibition?
Result :: % inhibition = 23

Query :: What measured % inhibition goes with Nc1ncc(-c2ccc(C(=O)N3CCC(N4CCCC4)CC3)cc2)cc1OCc1ccc(S(N)(=O)=O)cc1 ?
Result :: % inhibition = 17

Query :: What does the record list as % inhibition for CC(=O)Nc1nc(COc2cc(-c3ccc(C(=O)N4CCC(N5CCCC5)CC4)cc3)cnc2N)cs1 ?
Result :: % inhibition = 9

Query :: What does the data say about its % inhibition? Entry: Nc1ncc(-c2ccc(C(=O)N3CCC(N4CCCC4)CC3)cc2)cc1OCc1nc2ccccc2s1
Result :: % inhibition = 17

Query :: Given CNC(=O)c1ccc(OC)c(-c2noc(OCc3cc(-c4ccc(C(=O)N5CCC(N6CCCC6)CC5)cc4)cnc3N)n2)c1 , state its recorded % inhibition.
Result :: % inhibition = 11

Query :: Looking for the measured % inhibition of Cc1cc(C)nc(COc2cc(-c3ccc(C(=O)N4CCC(N5CCCC5)CC4)cc3)cnc2N)n1 , can you help?
Result :: % inhibition = 16

Numbers sourced from patent US8106197B2.
